Value source: patent US8569301B2

# Test system: ECHCG
# assayRemarks: Example B1 herbicidal action post-emergence, ECHCG
# Format: in vivo
# testParameters: Rate 1000 g/ha; sprayed after 8 days cultivation; evaluated after 13 days; scores from 10 to 0 (10=total damage to plant; 0=no damage to plant)
reportedMetric: assessed score, application post-emergence, ECHCG
Provide a numeric answer; units are not to be included.

* CCC1c2nccnc2C(O)=C(c2c(Cl)cccc2C(F)(F)F)S1(=O)=O (stereo not drawn) [Compound E1] | 7

State its assessed score, application post-emergence, ECHCG for this molecule: O=S1(=O)Cc2nccnc2C(O)=C1c1ccccc1OC(F)F [Compound C9]
3

State its assessed score, application post-emergence, ECHCG for this molecule: Cc1cc(C)c(C2=C(O)c3nccnc3C(CC(F)F)S2(=O)=O)c(C)c1 (stereo not drawn) [Compound E17]
10

State its assessed score, application post-emergence, ECHCG for this molecule: CCC1c2nccnc2C(O)=C(c2cc(Cl)ccc2C(F)(F)F)S1(=O)=O (racemic) [Compound E6]
5
